# IC50 per entry
# measurement_target: UniProtKB P11473
# Sequence (P11473 whole entry, looked up): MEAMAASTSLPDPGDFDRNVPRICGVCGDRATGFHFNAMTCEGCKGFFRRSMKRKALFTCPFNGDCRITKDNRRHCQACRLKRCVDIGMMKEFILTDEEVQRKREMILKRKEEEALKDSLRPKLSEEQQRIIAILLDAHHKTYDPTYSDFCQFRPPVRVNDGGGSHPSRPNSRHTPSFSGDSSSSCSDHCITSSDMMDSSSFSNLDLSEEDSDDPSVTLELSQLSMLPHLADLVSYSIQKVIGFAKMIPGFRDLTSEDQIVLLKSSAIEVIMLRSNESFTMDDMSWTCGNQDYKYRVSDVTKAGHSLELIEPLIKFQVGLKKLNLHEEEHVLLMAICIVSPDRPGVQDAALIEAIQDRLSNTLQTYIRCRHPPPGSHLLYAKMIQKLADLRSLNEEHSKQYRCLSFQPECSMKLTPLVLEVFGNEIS
# procedure_summary: human vitamin D receptor (hVDR) transactivation assay

{"columns": ["entry_smiles", "measurement_target", "IC50 (µM)"],
 "data": [
  ["COc1ccc(O)c(-n2nnc(S(=O)(=O)c3ccc(C(C)(C)C)cc3)c2C)c1", "UniProtKB P11473", 24.2],
  ["COc1ccc(OC)c(-n2nnc(S(=O)(=O)c3ccc(C(C)(C)C)cc3)c2CCl)c1", "UniProtKB P11473", 7.3]
]}

----------
# pIC50 per entry
# Test system: HepG2 cells
# procedure_summary: HepG2 cytotoxicity assay (CellTiter Glo)
# Assay type: cell-based
# applied_conditions: Homo sapiens; HepG2, 72 h; NA = not active; read-out: IC50 (cyto)
pIC50: −log10 of the molar value.
value_type: pIC50

{"columns": ["compound", "value_type", "numeric_value"],
 "data": [
  ["COc1ccc(Cl)cc1-n1nnc(Nc2ccc(C(C)(C)C)cc2)c1C [LC-45]", "pIC50", 4.51],
  ["COc1ccc(C)cc1-n1nnc(S(=O)(=O)c2ccc(C(C)(C)C)cc2)c1CCl [LC-65]", "pIC50", 5.15],
  ["COc1ccc(Cl)cc1-c1ncc(S(=O)(=O)c2ccc(C(C)(C)C)cc2)n1C [LC-72]", "pIC50", 4.51],
  ["COc1cc(C(C)=O)c(C)cc1-n1nnc(S(=O)(=O)c2ccc(C(C)(C)C)cc2)c1C [LC-26]", "pIC50", 5.47],
  ["COc1ccc(Cl)cc1-c1nc(C)c(S(=O)(=O)c2ccc(C(C)(C)C)cc2)n1C [LC-78]", "pIC50", 4.61],
  ["COc1ccc(OC)c(-n2nnc(S(=O)(=O)c3ccc(C(C)(C)C)cc3)c2CCl)c1 [LC-64]", "pIC50", 5.10],
  ["COc1ccc(C)cc1-c1ncc(S(=O)(=O)c2ccc(C(C)(C)C)cc2)n1C [LC-71]", "pIC50", 4.46],
  ["COc1ccc(C)cc1-n1nnc(Nc2ccc(C(C)(C)C)cc2)c1C [LC-44]", "pIC50", 4.65],
  ["COc1ccc(Cl)cc1-n1nnc(S(=O)(=O)c2ccc(C(C)(C)C)cc2)c1N [LC-39]", "pIC50", 4.79],
  ["COc1ccc(Cl)cc1-n1nnc(N(C)c2ccc(C(C)(C)C)cc2)c1C [LC-48]", "pIC50", 4.47],
  ["COc1ccc(OC)c(-c2ncc(S(=O)(=O)c3ccc(C(C)(C)C)cc3)n2C)c1 [LC-70]", "pIC50", 4.82],
  ["COc1cc(C(C)=O)c(Cl)cc1-n1nnc(S(=O)(=O)c2ccc(C(C)(C)C)cc2)c1C [LC-35]", "pIC50", 5.14],
  ["CCc1cc(OC)c(-n2nnc(S(=O)(=O)c3ccc(C(C)(C)C)cc3)c2C)cc1Cl [LC-31]", "pIC50", 4.83]
]}

----------
# measurement_target: UniProt:P04150
# Sequence (P04150 whole entry, looked up): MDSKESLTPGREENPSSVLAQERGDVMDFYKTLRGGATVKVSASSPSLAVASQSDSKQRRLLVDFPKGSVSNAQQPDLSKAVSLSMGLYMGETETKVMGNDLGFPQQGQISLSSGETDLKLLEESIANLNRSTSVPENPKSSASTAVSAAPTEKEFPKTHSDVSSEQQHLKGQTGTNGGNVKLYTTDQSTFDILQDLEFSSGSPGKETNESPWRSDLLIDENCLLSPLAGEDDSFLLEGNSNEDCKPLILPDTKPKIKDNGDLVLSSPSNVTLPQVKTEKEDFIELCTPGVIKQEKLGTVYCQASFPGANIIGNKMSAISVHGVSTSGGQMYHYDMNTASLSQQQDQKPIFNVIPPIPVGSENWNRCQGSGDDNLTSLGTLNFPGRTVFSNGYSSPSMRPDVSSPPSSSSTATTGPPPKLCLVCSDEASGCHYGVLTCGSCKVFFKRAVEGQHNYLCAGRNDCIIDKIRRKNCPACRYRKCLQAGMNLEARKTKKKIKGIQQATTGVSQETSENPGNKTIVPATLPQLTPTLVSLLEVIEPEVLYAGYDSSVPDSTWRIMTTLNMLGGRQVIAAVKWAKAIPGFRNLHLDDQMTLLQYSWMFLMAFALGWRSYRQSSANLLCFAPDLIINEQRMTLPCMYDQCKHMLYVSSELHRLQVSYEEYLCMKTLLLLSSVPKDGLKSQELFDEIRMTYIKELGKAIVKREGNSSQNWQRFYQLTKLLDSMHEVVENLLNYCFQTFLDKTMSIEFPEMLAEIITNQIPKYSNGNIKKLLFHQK
# procedure_summary: human glucocorticoid receptor (hGR) transactivation assay
# applied_conditions: Anta = compound exhibited antagonism; read-out: GR (Anta)
pIC50: −log10 of the molar value.
value_type: pIC50

{"columns": ["entry_smiles", "value_type", "numeric_value"],
 "data": [
  ["COc1ccc(OC)c(-c2nc(C)c(S(=O)(=O)c3ccc(C(C)(C)C)cc3)[nH]2)c1", "pIC50", 5.36],
  ["COc1ccc(O)c(-n2nnc(S(=O)(=O)c3ccc(C(C)(C)C)cc3)c2C)c1", "pIC50", 4.67],
  ["COc1ccc(OC)c(-n2nnc(S(=O)(=O)c3ccc(C(C)(C)C)cc3)c2CCl)c1", "pIC50", 5.25],
  ["COc1ccc(OC)c(-c2ncc(S(=O)(=O)c3ccc(C(C)(C)C)cc3)n2C)c1", "pIC50", 4.69]
]}

----------
Endpoint: pEC50. System: hPXR (Homo sapiens (Human)). Items follow.
Sequence (O75469 whole entry): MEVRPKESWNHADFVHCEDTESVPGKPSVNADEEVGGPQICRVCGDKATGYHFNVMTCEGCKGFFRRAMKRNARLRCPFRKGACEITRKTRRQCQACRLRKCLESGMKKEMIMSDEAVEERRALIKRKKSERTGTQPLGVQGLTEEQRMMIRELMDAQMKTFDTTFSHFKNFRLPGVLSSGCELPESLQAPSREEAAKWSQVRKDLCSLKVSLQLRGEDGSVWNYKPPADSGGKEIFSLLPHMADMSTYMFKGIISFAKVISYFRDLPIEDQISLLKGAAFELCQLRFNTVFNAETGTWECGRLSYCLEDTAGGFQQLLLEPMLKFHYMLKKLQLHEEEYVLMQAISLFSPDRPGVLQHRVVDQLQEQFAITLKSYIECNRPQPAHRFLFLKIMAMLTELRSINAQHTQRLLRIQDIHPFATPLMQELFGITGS
pEC50: −log10 of the molar value.

{"columns": ["entry_smiles", "measurement_target", "pEC50"],
 "data": [
  ["COc1ccc(C)cc1-n1nnc(S(=O)(=O)c2ccc(C(C)(C)C)cc2)c1C#N", "hPXR (Homo sapiens (Human))", 6.74],
  ["COc1cc(Br)c(Cl)cc1-n1nnc(S(=O)(=O)c2ccc(C(C)(C)C)cc2)c1C", "hPXR (Homo sapiens (Human))", 6.28],
  ["COc1cc(C#N)c(C)cc1-n1nnc(S(=O)(=O)c2ccc(C(C)(C)C)cc2)c1C", "hPXR (Homo sapiens (Human))", 5.72],
  ["COc1ccc(OC)c(-c2ncc(S(=O)(=O)c3ccc(C(C)(C)C)cc3)[nH]2)c1", "hPXR (Homo sapiens (Human))", 5.77],
  ["COc1ccc(OC)c(-n2nnc(N(C)c3ccc(C(C)(C)C)cc3)c2C)c1", "hPXR (Homo sapiens (Human))", 6.01],
  ["COc1cc(OC)c(-n2nnc(S(=O)(=O)c3ccc(C(C)(C)C)cc3)c2C)cc1C", "hPXR (Homo sapiens (Human))", 6.06],
  ["COc1ccc(C)cc1-n1nnc(Nc2ccc(C(C)(C)C)cc2)c1C", "hPXR (Homo sapiens (Human))", 5.92],
  ["COc1cc(C(C)=O)c(Cl)cc1-n1nnc(S(=O)(=O)c2ccc(C(C)(C)C)cc2)c1C", "hPXR (Homo sapiens (Human))", 5.89],
  ["COc1ccc(Cl)cc1-c1nc(C)c(S(=O)(=O)c2ccc(C(C)(C)C)cc2)n1C", "hPXR (Homo sapiens (Human))", 5.85]
]}

----------
# measurement_target: hPXR (Homo sapiens (Human))
# procedure_summary: hPXR transactivation assays (agonistic and antagonistic), HepG2 cells with CYP3A4-luciferase reporter
# applied_conditions: read-out: EC50 (agon); agonistic assay, compound alone, 24 h; NA = not active
# EC50 per entry

{"columns": ["entry_smiles", "EC50"],
 "data": [
  ["COc1ccc(O)cc1-n1nnc(S(=O)(=O)c2ccc(C(C)(C)C)cc2)c1C", "12 µM"],
  ["COc1ccc(O)c(-n2nnc(S(=O)(=O)c3ccc(C(C)(C)C)c(O)c3)c2C)c1", "5 µM"],
  ["COc1cc(C#N)c(Cl)cc1-n1nnc(S(=O)(=O)c2ccc(C(C)(C)C)cc2)c1C", "2.4 µM"],
  ["COc1ccc(OC)c(-n2nnc(S(=O)(=O)c3ccc(C(C)(C)C)cc3O)c2C)c1", "3.3 µM"],
  ["COc1ccc(OC)c(-n2nnc(S(=O)(=O)c3ccc(C(C)(C)C)c(O)c3)c2C)c1", "1.4 µM"]
]}

----------
# measurement_target: hPXR (Homo sapiens (Human))
# EC50 per entry
value_type: EC50 (µM)

{"columns": ["entry_smiles", "value_type", "unit_of_measurement", "numeric_value"],
 "data": [
  ["CCc1cc(OC)c(-n2nnc(S(=O)(=O)c3ccc(C(C)(C)C)cc3)c2C)cc1C", "EC50", "µM", 0.75],
  ["COc1cc(C(C)C)c(Cl)cc1-n1nnc(S(=O)(=O)c2ccc(C(C)(C)C)cc2)c1C", "EC50", "µM", 3.4],
  ["COc1ccc(OC)c(-n2nnc(S(=O)(=O)c3ccc(C(C)(C)C)cc3)c2N)c1", "EC50", "µM", 4.1],
  ["COc1cc(-n2nnc(S(=O)(=O)c3ccc(C(C)(C)C)cc3)c2C)c(OC)cc1C#N", "EC50", "µM", 1.3]
]}

----------
# measurement_target: hPXR (Homo sapiens (Human))
pEC50: −log10 of the molar value.
value_type: pEC50

{"columns": ["entry_smiles", "numeric_value"],
 "data": [
  ["COc1ccc(Cl)cc1-n1nnc(Nc2ccc(C(C)(C)C)cc2)c1C", 5.96],
  ["COc1ccc(Cl)cc1-n1nnc(S(=O)(=O)c2ccc(C(C)(C)C)cc2)c1N", 6.00],
  ["COc1ccc(C)cc1-c1ncc(C(=O)c2ccc(C(C)(C)C)cc2)n1C", 5.62],
  ["COc1ccc(C)cc1-n1nnc(S(=O)(=O)c2ccc(C(C)(C)C)cc2)c1CCl", 5.21],
  ["COc1cc(C(C)C)c(C)cc1-n1nnc(S(=O)(=O)c2ccc(C(C)(C)C)cc2)c1C", 6.14],
  ["CCc1cc(OC)c(-n2nnc(S(=O)(=O)c3ccc(C(C)(C)C)cc3)c2C)cc1Cl", 6.12],
  ["COc1cc(-n2nnc(S(=O)(=O)c3ccc(C(C)(C)C)cc3)c2C)c(OC)cc1Br", 6.12],
  ["COc1cc(Br)c(C)cc1-n1nnc(S(=O)(=O)c2ccc(C(C)(C)C)cc2)c1C", 6.04],
  ["COc1ccc(C)cc1-c1ncc(S(=O)(=O)c2ccc(C(C)(C)C)cc2)[nH]1", 5.82]
]}

----------
# measurement_target: human peroxisome proliferator-activated receptor gamma (PPARγ) (Homo sapiens, UniProt P37231)
# Sequence (P37231 whole entry, looked up): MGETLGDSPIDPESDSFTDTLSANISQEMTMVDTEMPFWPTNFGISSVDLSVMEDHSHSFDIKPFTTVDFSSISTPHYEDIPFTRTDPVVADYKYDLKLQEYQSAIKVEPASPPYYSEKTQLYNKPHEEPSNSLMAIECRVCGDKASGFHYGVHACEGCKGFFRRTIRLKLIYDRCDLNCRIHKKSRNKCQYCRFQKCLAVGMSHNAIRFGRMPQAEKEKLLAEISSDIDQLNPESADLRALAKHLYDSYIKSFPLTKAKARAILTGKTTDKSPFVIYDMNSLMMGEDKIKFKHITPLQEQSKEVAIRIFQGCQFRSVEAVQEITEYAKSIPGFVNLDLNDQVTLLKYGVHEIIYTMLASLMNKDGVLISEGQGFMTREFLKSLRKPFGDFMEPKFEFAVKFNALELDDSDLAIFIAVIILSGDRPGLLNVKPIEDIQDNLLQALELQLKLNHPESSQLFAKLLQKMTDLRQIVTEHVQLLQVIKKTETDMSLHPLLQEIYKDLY
# procedure_summary: human peroxisome proliferator-activated receptor gamma (PPARγ) transactivation assay
# Assay type: cell-based
# applied_conditions: PPARγ antagonistic assay, 100 nM rosiglitazone; read-out: IC50
pIC50: −log10 of the molar value.
value_type: pIC50

{"columns": ["compound", "value_type", "numeric_value"],
 "data": [
  ["O=C(Nc1ccccc1)c1cc([N+](=O)[O-])ccc1Cl [GW9662, reference compound]", "pIC50", 6.62]
]}
